target: Acetylcholinesterase (Homo sapiens) (UniProt P22303); test: Acetylcholinesterase (AChE) small molecule antagonists: enzyme-based qHTS assay (AID 1347397); details: AChE enzyme activity inhibition; series mostly up to 115 µM; note: nearly all actives have a fitted effect of over 55% in size
Sequence (P22303 whole entry, looked up): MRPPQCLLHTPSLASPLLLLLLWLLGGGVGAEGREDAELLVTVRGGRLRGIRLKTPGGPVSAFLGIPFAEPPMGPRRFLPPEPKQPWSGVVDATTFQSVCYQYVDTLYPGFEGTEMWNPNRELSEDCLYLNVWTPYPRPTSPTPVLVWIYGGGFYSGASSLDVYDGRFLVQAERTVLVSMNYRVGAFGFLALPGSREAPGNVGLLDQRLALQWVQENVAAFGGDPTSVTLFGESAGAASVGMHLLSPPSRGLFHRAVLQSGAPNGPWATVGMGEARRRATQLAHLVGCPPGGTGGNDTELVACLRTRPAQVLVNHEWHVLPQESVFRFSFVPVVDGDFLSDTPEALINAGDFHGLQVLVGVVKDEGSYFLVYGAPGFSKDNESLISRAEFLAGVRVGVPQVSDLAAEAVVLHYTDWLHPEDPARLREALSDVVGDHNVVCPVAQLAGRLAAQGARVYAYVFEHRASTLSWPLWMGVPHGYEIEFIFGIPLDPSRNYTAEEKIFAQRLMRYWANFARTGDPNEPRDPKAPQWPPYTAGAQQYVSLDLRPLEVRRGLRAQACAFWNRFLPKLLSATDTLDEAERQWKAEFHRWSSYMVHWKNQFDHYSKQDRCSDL
Calls of active or inactive are those of the source. Calls come from the whole dose curve.
Answer with one of the outcomes given here: active, inactive

[Q] Tell me the assay call for C=C(C)C(=O)OCCN(CC)CC please.
[A] inactive

[Q] Tell me the assay call for Cc1cc2c(OCC(CNC(C)(C)C)OC(=O)c3ccccc3)cccc2[nH]1 (configuration not stated) please.
[A] inactive

[Q] Tell me the assay call for CC(=O)OCC(=O)[C@@]12N=C(C)O[C@@H]1C[C@H]1[C@@H]3CCC4=CC(=O)C=C[C@]4(C)[C@H]3[C@@H](O)C[C@@]12C please.
[A] inactive

[Q] Tell me the assay call for O=C(Cl)c1ccc(Cl)cc1Cl please.
[A] inactive

[Q] Tell me the assay call for CCCCNC(N)=O please.
[A] inactive

[Q] Tell me the assay call for CC(=O)OCC(=O)[C@@]1(O)CCC2C3CCC4=CC(=O)CC[C@]4(C)C3[C@@H](O)C[C@@]21C (some centres not stated) please.
[A] inactive

[Q] Tell me the assay call for O=C1C(c2[nH]c3ccccc3c2O)=Nc2ccccc21 please.
[A] inactive

[Q] Tell me the assay call for CCCCCCCCCCCCCC[n+]1ccccc1 please.
[A] active

[Q] Tell me the assay call for CC(C)(O)CCC(C)(C)O please.
[A] inactive

[Q] Tell me the assay call for C[Si](C)O[Si](C)C please.
[A] inactive

[Q] Tell me the assay call for CN1CCCC1=O please.
[A] inactive

[Q] Tell me the assay call for COC(=O)c1cccnc1 please.
[A] inactive

[Q] Tell me the assay call for CC(=O)CCC(C)C please.
[A] inactive

[Q] Tell me the assay call for CC(=O)c1ccc(Cl)c(Cl)c1Cl please.
[A] inactive

[Q] Tell me the assay call for NC(N)=O please.
[A] inactive

[Q] Tell me the assay call for O=C(O)Cn1c(=O)n(Cc2ccc(Br)cc2F)c(=O)c2ccc(Cl)cc21 please.
[A] inactive

[Q] Tell me the assay call for c1ccc2nccnc2c1 please.
[A] inactive

[Q] Tell me the assay call for NC(=O)c1ccccc1O please.
[A] inactive

[Q] Tell me the assay call for COc1ccc(OC)cc1 please.
[A] inactive

[Q] Tell me the assay call for CN(C)Cc1cc(CN(C)C)c(O)c(CN(C)C)c1 please.
[A] inactive

[Q] Tell me the assay call for Cc1ccc(C(=O)Oc2ccc(C(O)CNC(C)(C)C)cc2OC(=O)c2ccc(C)cc2)cc1 (configuration not stated) please.
[A] inactive

[Q] Tell me the assay call for OC1C(O)C(O)C(O)C(O)C1O (configuration not stated) please.
[A] inactive

[Q] Tell me the assay call for CCCCOC(=O)CC(CC(=O)OCCCC)(OC(C)=O)C(=O)OCCCC please.
[A] inactive

[Q] Tell me the assay call for C=C(C)C(=O)OCC(CC)(COC(=O)C(=C)C)COC(=O)C(=C)C please.
[A] inactive

[Q] Tell me the assay call for Cc1c(Cn2ccnc2)c2ccccc2n1CCC(=O)O please.
[A] inactive

[Q] Tell me the assay call for C=Cc1c(C)c2cc3[nH]c(cc4nc(cc5nc(cc1[nH]2)C(C)=C5CCC(=O)O)C(CCC(=O)O)=C4C)c(C)c3C=C please.
[A] inactive

[Q] Tell me the assay call for CCCCCCCCCCCCCCCCO please.
[A] inactive

[Q] Tell me the assay call for COc1cc(O)c(C(=O)c2ccccc2)cc1S(=O)(=O)O please.
[A] inactive

[Q] Tell me the assay call for O=C1CCCCCN1 please.
[A] inactive

[Q] Tell me the assay call for CCCCCCC=O please.
[A] inactive

[Q] Tell me the assay call for C/C(=C(\CCO)SS/C(CCO)=C(\C)N(C=O)Cc1cnc(C)nc1N)N(C=O)Cc1cnc(C)nc1N please.
[A] inactive

[Q] Tell me the assay call for Nc1ccncc1N please.
[A] inactive

[Q] Tell me the assay call for CCc1occc(=O)c1O please.
[A] inactive

[Q] Tell me the assay call for C/C=C/C(=O)CCCC please.
[A] inactive

[Q] Tell me the assay call for COc1ccc(O)cc1 please.
[A] inactive

[Q] Tell me the assay call for Cc1c(N)cccc1C(F)(F)F please.
[A] inactive

[Q] Tell me the assay call for Cc1ccc(-c2ccccc2C#N)cc1 please.
[A] inactive

[Q] Tell me the assay call for Cc1ccc(N=Nc2c(O)ccc3ccccc23)c(C)c1 please.
[A] inactive

[Q] Tell me the assay call for Clc1ccc2c(c1)C(N1CCNCC1)=Nc1ccccc1O2 please.
[A] inactive

[Q] Tell me the assay call for O=C(O)c1cc(N=Nc2ccc(S(=O)(=O)Nc3ccccn3)cc2)ccc1O please.
[A] inactive

[Q] Tell me the assay call for CCCCCCCCCOC(=O)CCCCC(=O)OCCCCCCC please.
[A] inactive

[Q] Tell me the assay call for C/C(Cl)=C/CCl please.
[A] inactive

[Q] Tell me the assay call for Nc1ccc(N)c2ccccc12 please.
[A] inactive

[Q] Tell me the assay call for [Cl][In]([Cl])[Cl] please.
[A] inactive

[Q] Tell me the assay call for O=Cc1ccccc1S(=O)(=O)O please.
[A] inactive

[Q] Tell me the assay call for Cc1cc(C2CCCCC2)n(O)c(=O)c1 please.
[A] inactive

[Q] Tell me the assay call for CC(C)(C)C1CCC(O)CC1 (configuration not stated) please.
[A] inactive

[Q] Tell me the assay call for NC(=O)c1ccc([N+](=O)[O-])cc1Cl please.
[A] inactive

[Q] Tell me the assay call for C=COCCOCCOC=C please.
[A] inactive

[Q] Tell me the assay call for COc1cccc(CCc2ccccc2OCC(CN(C)C)OC(=O)CCC(=O)O)c1 (configuration not stated) please.
[A] inactive

[Q] Tell me the assay call for Cc1cccc2n[nH]nc12 please.
[A] inactive

[Q] Tell me the assay call for O=c1n(CCO)c(=O)n(CCO)c(=O)n1CCO please.
[A] inactive

[Q] Tell me the assay call for O=S(=O)(O)c1cc(S(=O)(=O)O)c2c(N=Nc3ccccc3)c(O)ccc2c1 please.
[A] inactive

[Q] Tell me the assay call for C=C(C)C(=O)OCC(C)O (configuration not stated) please.
[A] inactive

[Q] Tell me the assay call for CCCCNC(=O)NCCCC please.
[A] inactive

[Q] Tell me the assay call for COc1ccccc1C=O please.
[A] inactive

[Q] Tell me the assay call for CCOC(=O)n1ccn(C)c1=S please.
[A] inactive
